Data provenance: patent US7902373B2

# SYSTEM: human recombinant H-PGDS (Homo sapiens, UniProt O60760)
# Sequence (O60760 whole entry): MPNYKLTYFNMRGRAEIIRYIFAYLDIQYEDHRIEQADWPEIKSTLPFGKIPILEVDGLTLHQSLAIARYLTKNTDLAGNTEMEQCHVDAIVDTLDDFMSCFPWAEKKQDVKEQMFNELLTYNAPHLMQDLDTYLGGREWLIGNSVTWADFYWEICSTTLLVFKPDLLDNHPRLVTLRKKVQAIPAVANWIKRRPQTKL
# MEASUREMENT_NOTES: Fluorescence intensity h-PGDS TBA enzyme assay
# Assay type: biochemical
# CONDITION_PARAMETERS: Examples up to 622 (and 3a, 3b)
PROPERTY_MEASURED: log10 of IC50 (log10 of the value in nM)
Note: values are log10 of IC50 expressed in nM.

These recorded examples may help you get a feel for the data.
> print(dat)
                                   compound                                    system  experimental.result
1  C#CCN(C)C(=O)c1ccc(N2CCC(NC(=O)c3ccc(-c4cccc(F)c4)nc3)CC2)nc1  human recombinant H-PGDS (Homo sapiens, UniProt O60760)                 0.02
2  O=C(NC1CCN(Cc2ccccc2)CC1)c1ccc(-c2ccccc2)nc1  human recombinant H-PGDS (Homo sapiens, UniProt O60760)                 0.20

The value of log10 of IC50 recorded for O=C(NC1CCN(c2cccnn2)CC1)c1cnc(-c2cccc(F)c2)c(Cl)c1 when tested on human recombinant H-PGDS (Homo sapiens, UniProt O60760) reads 0.20

The value of log10 of IC50 recorded for CC(C)N1CCC(NC(=O)c2ccc(-c3cccc(F)c3)nc2)C1 (centres unmarked) when tested on human recombinant H-PGDS (Homo sapiens, UniProt O60760) reads 1.52

The value of log10 of IC50 recorded for O=C(NC1CCN(Cc2ccc3c(c2)OCCCO3)CC1)c1ccc(-c2cccc(F)c2)nc1 when tested on human recombinant H-PGDS (Homo sapiens, UniProt O60760) reads 0.21

The value of log10 of IC50 recorded for CC(C)Oc1ccccc1CN1CCC(NC(=O)c2ccc(-c3cccc(F)c3)nc2)CC1 when tested on human recombinant H-PGDS (Homo sapiens, UniProt O60760) reads 0.39

The value of log10 of IC50 recorded for Cc1ncc(CN2CCC(NC(=O)c3ccc(-c4cccc(F)c4)nc3)CC2)s1 when tested on human recombinant H-PGDS (Homo sapiens, UniProt O60760) reads -0.05

The value of log10 of IC50 recorded for Cn1c(CN2CCC(NC(=O)c3ccc(-c4cccc(F)c4)nc3)CC2)nc2ncccc21 when tested on human recombinant H-PGDS (Homo sapiens, UniProt O60760) reads 0.13

###

# SYSTEM: human recombinant H-PGDS (Homo sapiens, UniProt O60760)
# MEASUREMENT_NOTES: Fluorescence intensity h-PGDS TBA enzyme assay
# Type: biochemical
# CONDITION_PARAMETERS: Examples up to 622 (and 3a, 3b)
PROPERTY_MEASURED: pIC50
Friendly reminder that pIC50 comes from taking -log10 of the concentration in mol/L.

These recorded examples may help you get a feel for the data.
> print(dat)
                               query.smiles                                    system  experimental.result
1  CCOc1cccc(CN2CCC(NC(=O)c3ccc(-c4cccc(F)c4)nc3)CC2)c1  human recombinant H-PGDS (Homo sapiens, UniProt O60760)                 8.93
2  CC(C)(C)C(=O)Nc1ncccc1CN1CCC(NC(=O)c2ccc(-c3cccc(F)c3)nc2)CC1  human recombinant H-PGDS (Homo sapiens, UniProt O60760)                 8.39
3  O=C(NC1CCN(c2ncc3cccnc3n2)CC1)c1ccc(-c2cccc(F)c2)nc1  human recombinant H-PGDS (Homo sapiens, UniProt O60760)                 8.85

Moving on to another compound below.
The value of pIC50 recorded for CC(C)(C)OC(=O)NCCCN1CCC(NC(=O)c2ccc(-c3cccc(F)c3)nc2)CC1 when tested on human recombinant H-PGDS (Homo sapiens, UniProt O60760) reads 8.74
